# Experimental System: Gal4DBD/AaEcR (DEF) (Aedes aegypti)
# Construct: The wildtype D, E, and F domains from mosquito Aedes aegypti EcR; expressed in transfected cells; host or cells: 3T3 cells
# Assay Notes: cell-based
# Type: cell-based
# Stated Conditions: 33 μM; 3T3 cells; 48 h; average of two wells
Reported Metric: Fold Induction Average, AA_3T3V1 Assay 33 μM

What value of measured Fold Induction Average, AA_3T3V1 Assay 33 μM is listed for COc1cccc(NC2CC(C)N(C(=O)c3ccccc3)c3ccccc32)c1 (stereo not shown) ?
64 fold

Endpoint output: Fold Induction Average, AA_3T3V1 Assay 33 μM of C[C@H]1C[C@H](Nc2ccc(F)cc2)c2cc(F)ccc2N1C(=O)c1ccc(Cl)cc1 (relative stereo) . Value?
345 fold

Using the record for C[C@H]1C[C@H](Nc2ccc(F)cc2)c2cc(F)ccc2N1C(=O)c1ccc(F)cc1 (relative stereo) , report its Fold Induction Average, AA_3T3V1 Assay 33 μM.
131 fold

Request the reported Fold Induction Average, AA_3T3V1 Assay 33 μM associated with COc1cccc(C(=O)N2c3ccc(C)cc3C(Nc3ccc(C)cc3)CC2C)c1C (stereo not shown)
35 fold

---

# Experimental System: Gal4DBD/AaEcR (DEF) (Aedes aegypti, UniProt P49880)
# Construct: The wildtype D, E, and F domains from mosquito Aedes aegypti EcR; expressed in transfected cells; host or cells: 3T3 cells
# Sequence (P28704 286-520 A311G/G315S/G445S/I449V): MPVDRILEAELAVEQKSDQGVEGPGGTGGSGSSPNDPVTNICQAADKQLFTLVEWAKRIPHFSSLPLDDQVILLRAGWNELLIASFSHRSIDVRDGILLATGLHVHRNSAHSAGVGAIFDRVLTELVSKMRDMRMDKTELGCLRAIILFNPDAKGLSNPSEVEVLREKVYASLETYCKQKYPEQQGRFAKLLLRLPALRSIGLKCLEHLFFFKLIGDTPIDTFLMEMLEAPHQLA
# Sequence (P49880 405-776): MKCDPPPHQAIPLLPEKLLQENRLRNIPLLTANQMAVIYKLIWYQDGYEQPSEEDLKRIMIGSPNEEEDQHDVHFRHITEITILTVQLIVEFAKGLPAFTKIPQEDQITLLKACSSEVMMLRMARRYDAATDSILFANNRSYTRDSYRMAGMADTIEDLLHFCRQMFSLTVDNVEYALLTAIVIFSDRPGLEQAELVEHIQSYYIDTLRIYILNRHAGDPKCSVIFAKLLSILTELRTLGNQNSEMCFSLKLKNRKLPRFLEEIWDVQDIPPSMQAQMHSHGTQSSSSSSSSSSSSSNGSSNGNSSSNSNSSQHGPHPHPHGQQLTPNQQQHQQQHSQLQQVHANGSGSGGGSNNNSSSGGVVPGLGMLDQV
# Assay Notes: cell-based
# Format: cell-based
# Stated Conditions: 33 μM; 3T3 cells; 48 h; average of two wells
Reported Metric: Fold Induction Average, AA_3T3V1 Assay 33 μM (fold)
Give just the number in fold; leave the unit off.

Dear colleague, I am looking for the recorded Fold Induction Average, AA_3T3V1 Assay 33 μM of the following molecule: CC1CC(Nc2ccc(F)cc2)c2cc(F)ccc2N1C(=O)c1ccccc1F (centres unmarked) [Compound I-55]
78

// Fold Induction Average, AA_3T3V1 Assay 33 μM lookup, key: COc1ccc(C(=O)N2c3c(C)cccc3C(Nc3ccccc3C)CC2C)cc1 (centres unmarked) [Compound I-135]
1

Looking for the measured Fold Induction Average, AA_3T3V1 Assay 33 μM of Cc1ccc(C(=O)N2c3ccccc3C(Nc3cccc(Cl)c3)CC2C)cc1 (mixture of isomers) [Compound I-42] , can you help?
80

Which Fold Induction Average, AA_3T3V1 Assay 33 μM reading was recorded for the molecule CCOC(=O)C(=O)N1c2ccccc2C(Nc2ccccc2)CC1C (centres unmarked) [Compound I-171] ?
1

Item under review: CCc1ccc(C(=O)N2c3ccccc3C(Nc3ccccc3)CC2C)cc1 (centres unmarked) [Compound I-62] . Reported Fold Induction Average, AA_3T3V1 Assay 33 μM?
744

Look up Fold Induction Average, AA_3T3V1 Assay 33 μM: COc1cccc(C(=O)N2c3ccc(F)cc3[C@@H](Nc3ccc(F)cc3)C[C@@H]2C)c1 (relative stereo) [Compound I-91]
542

Data request, read-out Fold Induction Average, AA_3T3V1 Assay 33 μM, for COc1cccc(C(=O)N2c3ccccc3C(Nc3ccccc3)CC2C)c1C (centres unmarked) [Compound I-50]
21

Suppose we examine the molecule Cc1ccc(NC2CC(C)N(C(=O)Nc3ccc(Cl)cc3)c3ccc(C)cc32)cc1 (centres unmarked) [Compound I-217] ; what Fold Induction Average, AA_3T3V1 Assay 33 μM value has been reported?
8
